target: rhesus macaque monkey CXCR4 (rhesus macaque) (UniProt P79394); experiment: flow cytometry, scFv-Fc on transfected 293T cells, FITC anti-human IgG
Sequence (P79394 whole entry): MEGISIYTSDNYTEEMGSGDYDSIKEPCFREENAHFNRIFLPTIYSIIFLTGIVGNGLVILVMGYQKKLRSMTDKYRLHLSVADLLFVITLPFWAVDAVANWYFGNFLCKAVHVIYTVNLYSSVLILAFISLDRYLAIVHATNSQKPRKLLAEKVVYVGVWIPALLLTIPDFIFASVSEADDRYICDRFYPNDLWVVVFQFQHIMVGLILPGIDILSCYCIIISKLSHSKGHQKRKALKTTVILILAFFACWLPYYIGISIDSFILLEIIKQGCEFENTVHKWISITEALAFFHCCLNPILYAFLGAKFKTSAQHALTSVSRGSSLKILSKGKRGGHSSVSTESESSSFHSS
In this section we review reported reactivity (MFI of chimeric receptor/MFI of wild type CXCR4 x 100%) values for a set of binders.
Please reply with the bare figure in % and do not write the unit itself.

2N-Fc (Fc fusion, part only; not given: linker and human IgG1 hinge-Fc, not shown: another chain or arm of the molecule; a dimerising Fc or GST; small tags and cut ends) VH: EVQLVESGGGVVQPGRSLRLSCAASGFTFSSYGMHWVRQAPGKGLEWVAVISYDGSNKYYADSVKGRFTISRDNSKNTLYLQVSSLRAEDTAVYYCVRDLVAAAGTAFDIWGQGTTVTVSS VL: QPVLTQPRSVSGSPGQSVTISCTGTISDVGGHNFVSWYQQNPGKAPKLIIFEVTKRPAGVPDRFSGSKSGNTASLTVSGLQAEDEGEYYCSSYGGSNDVIFGGGTKLSVL
98.3
33-Fc (Fc fusion, part only; not given: linker and human IgG1 hinge-Fc, not shown: another chain or arm of the molecule; a dimerising Fc or GST; small tags and cut ends) VH: QVTLKESGGGVVQPGRSLRLSCAASGFTFTNYGLHWVRQAPGKGLEWVAVISHDGTKKYYADSVKGRFTISRDSSENTLYLQMNSLRPEDSALYYCARDGGYCSGGRCYSYGMDVWGQGTTVTVSS VL: QSVLTQPPSASGTPGQRVTISCSGSRSNIGSNTVNWYQQLPGTAPKLLIYTNNQRPSGVPDRFSGSKSGTSASLAITGLQAEDEADYYCLSFDSSLTSYVFGTGTKVTVL
103
20-Fc (Fc fusion, part only; not given: linker and human IgG1 hinge-Fc, not shown: another chain or arm of the molecule; a dimerising Fc or GST; small tags and cut ends) VH: EVQLVQSGGGLVQPGGSLRLSCAASGFTFSSYAMSWVRQAPGKGLEWVANIKQDGSEKYYVDSVKGRFTISRDNAKNSLYLQMNSLRAEDTAVYYCARDQVSGITIFGGKWRSPDVWGQGTTVTVSS VL: SSELTQDPAVSVALGQTVRITCQGDSLRSYYASWYQQKPGQAPVLVIYGKNNRPSGIPDRFSGSKSHNTAYLTITGAQAEDEADYFCNSRSGSQRVFGGGTKLTVL
77.5

Pending binder:
Sample 6R-Fc (Fc fusion, part only; not given: VH-VL linker, hinge and IgG1 Fc, not shown: another chain or arm of the molecule; a dimerising Fc or GST; small tags and cut ends) VH: QVQLQQSGPGLVKPSQTLSLTCAVSGDSVSSNFVAWNWIRQSPSRGLEWLGRTYYRSRWYNDYAVSVQSRIRVTPDTSKNQFSLHLDSVTPEDTAVYYCARGQHSGFDFWGQGTLVTVSS VL: QSVLTQPPSVSKGLRQTATLTCTGNSNNVGNQGAAWLQQHQGHPPKLLSYRNNNRPSGISERFSASRSGNTASLTITGLQPEDEADYYCSAWDNRLKTYVFGTGGKVTVL — what was its reactivity (MFI of chimeric receptor/MFI of wild type CXCR4 x 100%)?
41.9
